TEST DETAILS: yeast display, Sf9 membrane polyspecificity reagent, FACS + sequencing; frameworks hold sequencing errors

INPUT SEQUENCE	polyreactivity (PSR sort gate)
QVQLVESGGGLVQAGGSLRLSCAGSGSNFDVYTMGWYRKAPGKERELVAAINTGGGSTYYADSVKGRFTISRDNAMNTVYLQMNSLKPEDTAVYYCAASVYHYGPLYYWRQGTQVTVSS	low polyreactivity
QVQLVESGGGLVQAGGSLRLSCAASGSILQSYAMGWYRQAPGKERELVAAISGSGGSTYYADSVKGRFTISRDNAKNTVYLQMNSLKPEDTAVYYCAKGPLYRTSRGEFGYWGQGTQVTVAS	low polyreactivity
QVQLVESGGGLVQAGGSLRLSCAASGYIFDRYAMGWYRQAPGKERELVAAISSDGSTYYADSVKGRFTISRDNAKNTVYLQMNSLKPEDTAVYYCAADGGESAWGGYDYWGQGTQVTVSS	low polyreactivity
QVQLVESGGGLVQAGGSLRLSCAASGFIFGYNALGWYRQAPAKERELVAAITWIGGTTYYADSVKGRFTISRDNAKNTVYLQLNSLKPEDTAVYYCARQRSFGRSSYSHRYDYWGQGNQVTVSS	high polyreactivity
QVQLVESGGGLVQAGGSLRLSCAASGRIFARNALGWYRQAPGKEGELVARIRASGGSTYYADSVKGRFTISRDNEKNTVYLQMNSLKPEDTAVYYCNARTSSPYRVDYWGQGTQVTVSS	high polyreactivity
QVHLVESGGGLVQAGGSLRLSCAASGRIFVTYAMGWYRQAPGKERELVAAIPWDGDSTYYADSVKGRFTFSRDNAKNTVYLQMNSLKREDTAVYYCNAKKFNSHVELGYDYWGQGTQVTVSS	low polyreactivity
QVQLVESGGGLGQAGGSLRLSCAASGIIFLDNAMGWYRQAPGKERELVAAYADSVKGRFTISRDNSNNTVYLQMNSLKPEDTAVYYCNVVLYKYSPTDSWITYDYWGQGTQVTVSS	low polyreactivity
QVQLVESGGGLVQAGGSLRLSCAASVRNYGINVMVWYRQAPGKERELVAAISYRTGSTYYADSVKGRFTISRDNAKNTVYLQMNSLKPEDTAVYYCDALRSIRTAWYDYWGQGTQVTVSS	high polyreactivity
QVQLVESGGGLVQAGGSLRLSCASSGSIFFLYAMGWYRQAPGKERELVAAITGSGSRTYYADSVKGRFTISRDNEKNTVYLHMNSLKPEYTAVYYCAARYYGAYGKQPRARYGYWGKGTQVTVSS	high polyreactivity
QVQLVESGGGLVQAGGSLRLSCASSGRIFRNNVMGWYRQAHGKVRELVAAISATGTITRYADSVKGSFTISRDYSKNTVYLQMNSLKPEDTAVYYCAKDRGWWLGFIMDYWGQGSQVTVSS	low polyreactivity

---

TEST DETAILS: yeast display, Sf9 membrane polyspecificity reagent, FACS + sequencing; frameworks hold sequencing errors

INPUT SEQUENCE	polyreactivity (PSR sort gate)
QVQLLESGGGLVPAGGSLRLSCAASGYIFHRYAMGWSRQAPGKERELVAAITWTGARTYYADSVKGRFTISRDNAKNTVYLQMNSLKPEDTAVYYAGPASYSFAKSGYWGQGTQVTVSS	high polyreactivity
QVQLVESGLGIVQAGGSLRVSCAASGSTISNYAMGWYRHAPGKERELVAAITSGGTTNYADSVKGRFTISRDNAKNTVYFQMNSLIPEDTAVYYCAKRYSYHVPTHLWVEYYYWGQGTQVTVSS	low polyreactivity
QVQLVESGGGLVQAGGSLRLSCAASGLIFPSYTMGWYRQAPGKDRELVAAITFSGDSTNYADSVKGRFTISRDNAKNTVYLQMNSLKPEDTAVYNCAASQVSDTTRFGYWGQGTQVTVSS	low polyreactivity
QVQLVESGGGLVQAGGSLRLSCAASGSTFKWNAMGWYRQAPGKERELVAAISKGSVNTYYADSVKGRFTISRDNAKNTVYLQMNSLKPEDTAVYYCAADRRYPALDYRGQGTQVTVSS	high polyreactivity
QVQLVESGGGLVQAGGSHRLSCAASGRTFYQNAMGWYRQAPGKERELVATISQRGGSTYYADSVKGRFTISRDTAKNTVYLQMNSLKPEDTAVYYCAKGRYAYSIWDDYWGQGTQVTVSS	low polyreactivity

---

TEST DETAILS: yeast display, Sf9 membrane polyspecificity reagent, FACS + sequencing; frameworks hold sequencing errors

INPUT SEQUENCE	polyreactivity (PSR sort gate)
QVQLVESGGGLVQAGGSLRVSCAASGRTFRYYAMGWYRQAPGKERELVASISDGGSTNYADSVKGRFTISRDNAKNTVYLQMNSQKPEDTAVYYCNAKAYVWYLYDEFGYWGQGTQVTVSS	low polyreactivity
QVQLVESGGGLVQAGGSLRLSCAASGFIFVVYAMGWYRQAPGKERELVATISSGGGTYYADSVKGRFTISRDNAKNTVYLQMNSLKPEDTAVYYCAARRRRLYHFGGNNYWGQGTQVTVSS	high polyreactivity
QVHLVESGGGLVQAGGSLRLSCAASALTDGRYAMGWYRQAPGKERELVADIRYRAGSTNYADSVKGRFTISRDNAKNTVYLQMNSLKPEDTAVYYCAKGHPNDFGYWGQGTQVTVSS	high polyreactivity
QVQLVESGGGLVQAGGSLRLSCAASGRTFYDNAMGWYRQAPGKERELVAAISWSGGSTYADSVKGRFTISRDNAKNTVYLQMNSLKPEDTAVYYCNADAWLASGYRYDYWGQGTQVTVSS	low polyreactivity
QVQLVESGGGLVQAGGSLRLSCAASGSTFLYNTMGWSRQAPGKERELVATITSRGDRTYYADSVKGRFPISRENAKNTVYLQMNSLKPEDTADYYCAALLYIRSVGYDYWGQGPQVTVSS	low polyreactivity
QVQLVESGGGLVQAGGSLRLSCAASGSISRVYTMGWYRQAPGKQRELVAVIRRSSGSTYYADSLKGRFTISRDNAKNTVYFQMNSLKPEDTAVYYCAARGYYSGQTTIGMDYWGQGTQVTVSS	low polyreactivity
QVQLVESGGRLVQAGGSLRLSCAASGSIFYTYAMGWYRQAPGKEMELVAAITYRVGSTYYADSVKGRFTISRDNAKNTVYLQMNSLKPEDTAVYYCNADKGGHVRHYDYWGQGTQVTVSS	low polyreactivity
QVQLVESGGGLVQAGGSLRLSCAASGFTFYLYAMGWYRQAPGKERELVAAINSGSSTYYADSVKGRFTISRDNAKNTVYLQMNSLNPEDTAVYYCATDTDRTMDYWGQGTQVTVSS	low polyreactivity
QVQLVESGGGLVQAGGSLRLSCAASGFIFLDNAMGWNRQAPGKERELVDAISSTGSTYADSVKGRFTISRDNAKNTVYLQMNSLKPEDTAVYYCAADIEVSWDDDGYYPEYDYWGQGTQVTVSS	low polyreactivity
QVQLVESGGGLVQAGGSHRLTCAASGRTFIFYAMGWYRPEPGKERELVAAITYSGTSTYYADSVKGRFTISRDNAKNTVYLQMNSLKPEDTAVYYCAKDGQRDANYYWGQGTQVTVSS	low polyreactivity
QVQLVESGGGLVQAGGSLRLSCAPCGSIFPAYTMGWYRRAPGKERELVAAISRRGGSTYYADCVKGRFTISRDNEKNTVYLQMNRLKPEDTAVYDCAKVPDYRFEYWGQGSQVTVSS	high polyreactivity
QVQLVQSGGGLVQAGGSLRLSCAASQNAMGWYRQAPGKERELVAAISKGGGRTYYADSVKGRFTISRDNAKNTVYLQMNSLKPEDTAVYYCNARYYSSQDADRHEYWGQGTQVTVSS	high polyreactivity

---

TEST DETAILS: yeast display, Sf9 membrane polyspecificity reagent, FACS + sequencing; frameworks hold sequencing errors
OBSERVABLE: polyreactivity (PSR sort gate)

INPUT SEQUENCE	RESULT
QVQLVESGGGLVQAGGSLRLSSAASGFIFIINAMGWYRQAPGKEREFVAAITGSGGSTYYADSVKGRFTISRDNAKNTVYLQMNSLKPEDTAVYYCANVGPYYSGKVYGRTYYSRYGYWGQGTQVTVSS	low polyreactivity
QVQLVESGGGLVQAGGSLRLSCAASGRTFVYNAMGWYRQAPGKERELVAAIRFSGGRTYYADSVKGRFTISRDNAKNTVYLQMNSLKPEDTAVYYCAVTGELTLYTWRSFEYYYWGQGTQVTVSS	low polyreactivity
QVQLVESGGGLVQAGGSLRLSCAASGSTFYRYAMGWYRQAPGKERELVAAITARGGSTYYADSVKGRFTISRDNAKNTVYLQMNSLKPEDTAVYYCAADWLSTKNDYWGQGTQVTESS	low polyreactivity

---

TEST DETAILS: yeast display, Sf9 membrane polyspecificity reagent, FACS + sequencing; frameworks hold sequencing errors
OBSERVABLE: polyreactivity (PSR sort gate)

INPUT SEQUENCE	RESULT
QVQLVESGGGLVQAGGSHRISCAASGNTFVINTMGWYRQAPGKERELVAGISRRGTSTYYADSVKGRFTISRDNAKNTVYLQMNSLKPEDTAVYYCAVYAEIVRYEYWGQGTQVTVSS	high polyreactivity
QVQLVESGGGLVQAGGSLRLSCDASGRTFIGYAMGWYRQAPGKERELVAAINWSGARTYYADSVKGRFTISRDNAKNTVYLQMNSLKPEDTAVYYCAAVPVTSQTKYGYWGQGTQVTVSS	high polyreactivity
QVQLVESGGGLVQAGGSLRLSCAASGFTFFLNAMGWYRQAPGKERELVAAINRSGGSTYYADSVKGRFTISRDNAKNTVYLQMNSLKPEDTAVYYCATYSFWHYAYDYWGQGTQVTVSS	low polyreactivity
QVQLVESGGGLVQAGGSLRLSCAASGFIFFEYAMGWYRQAPGKERELVAAISWSDDTTYYADSVKGRFTISRDNAKNTVYLQMNSLNPEDTAVYYCNVRYWGFYDYDYWGQGSQVTVSS	low polyreactivity
QVQLVESGGGLVQAGGSLRLSCAASGRIFRNYAMGWYRQAPGKERELVAAISVSGGRTYYADSVKGRFTISRDNAKNTVYLQMNSLKPEDTAVYYCAARTGRQGYSRGYNSWGQGTQVTVSS	high polyreactivity
QVQLVESGGGLVQAGGSLRLSCAASGLIFGTYAMGWYRQAPGKERELVATINSSGGSTYYADSVKGRFTISRDNAKNTVYLQMNSLKPEDTAVYYCNTRRYDAYYDYDYWGQGTQVTVSS	low polyreactivity
QVQLVESGGGLVQAGGSLRLSCAASGFIFPVYAMGWYRQAPGKERELVAAIRRGGSTNYADSVKGRFTISRDNAKNTVYLQMNSLKPEDTAVYYCAVEYQSPDDYWGQGTQVTVSS	low polyreactivity
QVQLVESGGGLVQSGGSLRLSCAASGRIFRYYAMGSYRQAPGKERELVSAITRGGSTNYADSVKGRFTISRDNAKNTVYLQMNSLKPEDTADYYCATRQSWYPRWMDYWGQGSQVTVSS	high polyreactivity
